B1: Pistol ribozyme (parent)
chain: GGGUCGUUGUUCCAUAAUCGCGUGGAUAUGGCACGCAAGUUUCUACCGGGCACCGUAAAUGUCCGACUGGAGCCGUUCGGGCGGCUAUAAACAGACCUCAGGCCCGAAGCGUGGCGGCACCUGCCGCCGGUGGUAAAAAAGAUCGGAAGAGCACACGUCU

variants of: B1; test: aptazyme ON/OFF ratio, guanine; higher = stronger switching; co-transcriptional cleavage with and without guanine
PROPERTY: aptazyme ON/OFF ratio
Would you mind answering with just the numeric figure?

change="U7A U8G G9C U10C C12U C13A" numeric_value=1.14
change="U7G U8C G9A C12U C13G" numeric_value=1.02
change="U7G U8G G9A U10G U11A C13U" numeric_value=1.12
change="U7A U8C G9U U11G C13G" numeric_value=1.12
change="U7A U8G U10A C13A" numeric_value=1.09
change="U7A U8G G9C U10A C12U" numeric_value=1.36
change="U7G U8G U11A C12A" numeric_value=1.36
change="U7C G9C U10A U11C C12U C13G" numeric_value=1.03

Prompt: Tell us which aptazyme ON/OFF ratio value is on record for U8C G9A U10A C12G
Response: 1.29

Prompt: Tell us which aptazyme ON/OFF ratio value is on record for U7G U8C U10C U11A C12G C13A
Response: 1.13

Prompt: Tell us which aptazyme ON/OFF ratio value is on record for U7C U8C G9A U11C C13A
Response: 1.22

Prompt: Tell us which aptazyme ON/OFF ratio value is on record for U7A U8G U10A U11G C12A
Response: 1.43

Prompt: Tell us which aptazyme ON/OFF ratio value is on record for U7C U10A U11A C12A C13A
Response: 1.17

Prompt: Tell us which aptazyme ON/OFF ratio value is on record for U7A U8A G9C U11C C12A C13A
Response: 1.08

Prompt: Tell us which aptazyme ON/OFF ratio value is on record for U7C G9C U10A U11A C13A
Response: 1.11

Prompt: Tell us which aptazyme ON/OFF ratio value is on record for U8A G9A U10G U11A
Response: 1.02

Prompt: Tell us which aptazyme ON/OFF ratio value is on record for U7G U8G G9A U11A C13A
Response: 1.35

Prompt: Tell us which aptazyme ON/OFF ratio value is on record for U7G U8G G9U U10A C12A
Response: 1.28

Prompt: Tell us which aptazyme ON/OFF ratio value is on record for U7C U10C U11G C12A C13U
Response: 1.33

Prompt: Tell us which aptazyme ON/OFF ratio value is on record for U7C U8A G9U U10G U11A C12G C13A
Response: 1.21

Prompt: Tell us which aptazyme ON/OFF ratio value is on record for U7C U10A U11A C13A
Response: 1.28

Prompt: Tell us which aptazyme ON/OFF ratio value is on record for U7C U8A G9U U10C U11A C12A C13U
Response: 1.15

Prompt: Tell us which aptazyme ON/OFF ratio value is on record for U8G G9C U10A U11C C12G C13G
Response: 1.05
